Tested on: CEM cells HIV-1 protection, formazan growth assay
PROTOCOL DESCRIPTION: NCI AIDS Antiviral Assay
Below, each entry is listed alongside its reported EC50.
MEASURE NAME: EC50

{"MOLECULE": "CN1CCC2(CC1)OCCN2CCO", "STUDY SYSTEM": "CEM cells HIV-1 protection, formazan growth assay", "MEASURE NAME": "EC50", "OBSERVED": "> 1260 µM"}
{"MOLECULE": "COC(=O)C1(Cc2ccc3c(c2)CCC3)Cc2ccccc2C1", "STUDY SYSTEM": "CEM cells HIV-1 protection, formazan growth assay", "MEASURE NAME": "EC50", "OBSERVED": "> 200 µM"}
{"MOLECULE": "COc1ccccc1NCc1cccc2c(=O)c3ccc(Cl)cc3oc12", "STUDY SYSTEM": "CEM cells HIV-1 protection, formazan growth assay", "MEASURE NAME": "EC50", "OBSERVED": "> 151 µM"}
{"MOLECULE": "CC(CCC(=O)O)[C@H]1CCC2[C@H]3C(CC(=O)[C@@]21C)[C@@]1(C)CCC(O)C[C@H]1C[C@@H]3O (stereo partly specified)", "STUDY SYSTEM": "CEM cells HIV-1 protection, formazan growth assay", "MEASURE NAME": "EC50", "OBSERVED": "> 200 µM"}
{"MOLECULE": "CN1CCC2(CC1)C(=O)N(N1CCCCCC1)C(=O)N2c1ccccc1", "STUDY SYSTEM": "CEM cells HIV-1 protection, formazan growth assay", "MEASURE NAME": "EC50", "OBSERVED": "> 200 µM"}
{"MOLECULE": "O=c1[nH]c(Nc2cc(Cl)cc(Cl)c2)nc2nc[nH]c12", "STUDY SYSTEM": "CEM cells HIV-1 protection, formazan growth assay", "MEASURE NAME": "EC50", "OBSERVED": "> 200 µM"}
